biological target: T1, recombinant human CSF-1R (form not stated) (human, UniProt P07333 20-512, limits assumed); assay: BIAcore, experiment 2 of 3
T1 construct: for the ELISA no species is stated; also called recombinant CSF-1R; recombinant CSF-1R protein
T1 sequence (P07333 20-512 limits assumed): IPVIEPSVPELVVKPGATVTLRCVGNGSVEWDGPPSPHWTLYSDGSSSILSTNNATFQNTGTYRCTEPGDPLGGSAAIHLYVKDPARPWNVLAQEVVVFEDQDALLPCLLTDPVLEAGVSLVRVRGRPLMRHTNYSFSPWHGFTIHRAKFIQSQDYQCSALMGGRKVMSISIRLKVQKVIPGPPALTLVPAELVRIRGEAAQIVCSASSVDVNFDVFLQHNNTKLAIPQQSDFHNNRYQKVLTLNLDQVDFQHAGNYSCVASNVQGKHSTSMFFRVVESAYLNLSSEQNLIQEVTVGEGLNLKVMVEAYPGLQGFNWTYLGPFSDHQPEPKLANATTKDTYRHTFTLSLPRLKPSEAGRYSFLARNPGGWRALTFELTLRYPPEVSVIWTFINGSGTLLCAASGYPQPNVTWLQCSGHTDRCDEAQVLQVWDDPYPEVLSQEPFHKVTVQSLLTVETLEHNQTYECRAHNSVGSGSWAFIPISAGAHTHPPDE
pKd: −log10 of the molar value.
Value type: pKd

Binder	Numeric result
969gH2gL1 (antibody, human IgG4 S228P, kappa, name in Kabat numbering, V domains shown, Humanised IgG4 (S241P)/kappa; positions are Kabat; also called Ab969.g6) VH: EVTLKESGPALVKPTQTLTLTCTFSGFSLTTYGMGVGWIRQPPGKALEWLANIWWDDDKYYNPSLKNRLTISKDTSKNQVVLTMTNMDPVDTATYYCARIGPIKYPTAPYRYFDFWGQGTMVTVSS VL: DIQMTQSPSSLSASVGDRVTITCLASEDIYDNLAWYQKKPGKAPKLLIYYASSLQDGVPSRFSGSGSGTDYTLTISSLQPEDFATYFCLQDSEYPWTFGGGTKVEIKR	11.43
chimeric antibody 969 (rat variable regions, human gamma-4 heavy chain constant region and human kappa chain constant region) (antibody, human IgG4, V domains shown, Alexa-488 label in the cell-based affinity assay; not carried by the letters., Full-length human IgG4 (S241P)/kappa chimeric; also called Ab969) VH: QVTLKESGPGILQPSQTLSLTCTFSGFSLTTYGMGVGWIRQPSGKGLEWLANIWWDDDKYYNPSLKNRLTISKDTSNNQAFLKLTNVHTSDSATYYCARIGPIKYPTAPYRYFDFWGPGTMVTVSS VL: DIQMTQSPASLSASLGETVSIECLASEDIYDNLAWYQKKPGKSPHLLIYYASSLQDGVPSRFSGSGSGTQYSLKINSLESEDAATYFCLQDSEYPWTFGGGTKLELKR	11.41
969gH2gL4 (antibody, human IgG4 S228P, kappa, name in Kabat numbering, V domains shown, Humanised IgG4 (S241P)/kappa; positions are Kabat; also called Ab969.g7) VH: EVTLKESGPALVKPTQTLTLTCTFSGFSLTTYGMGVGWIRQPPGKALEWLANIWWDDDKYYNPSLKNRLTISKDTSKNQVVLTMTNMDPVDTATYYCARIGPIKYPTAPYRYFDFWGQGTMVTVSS VL: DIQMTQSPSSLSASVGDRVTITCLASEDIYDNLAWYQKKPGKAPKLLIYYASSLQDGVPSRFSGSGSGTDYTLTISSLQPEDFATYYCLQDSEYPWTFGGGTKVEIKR	11.44
969gH1gL1 (antibody, human IgG4 S228P, kappa, name in Kabat numbering, V domains shown, Humanised IgG4 (S241P)/kappa; positions are Kabat; also called Ab969.g1) VH: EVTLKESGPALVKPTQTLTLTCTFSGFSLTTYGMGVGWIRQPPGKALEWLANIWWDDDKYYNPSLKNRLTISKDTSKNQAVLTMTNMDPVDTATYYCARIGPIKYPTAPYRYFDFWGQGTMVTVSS VL: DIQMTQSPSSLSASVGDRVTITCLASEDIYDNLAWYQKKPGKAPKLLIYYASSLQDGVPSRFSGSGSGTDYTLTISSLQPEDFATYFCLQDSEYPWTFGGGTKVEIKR	11.62
969gH2gL8 (antibody, human IgG4 S228P, kappa, name in Kabat numbering, V domains shown, Humanised IgG4 (S241P)/kappa, no donor residues; position is Kabat; also called Ab969.g4) VH: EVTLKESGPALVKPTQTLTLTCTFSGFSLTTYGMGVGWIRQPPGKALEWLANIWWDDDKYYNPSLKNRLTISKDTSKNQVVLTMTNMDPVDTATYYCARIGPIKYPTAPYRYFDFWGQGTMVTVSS VL: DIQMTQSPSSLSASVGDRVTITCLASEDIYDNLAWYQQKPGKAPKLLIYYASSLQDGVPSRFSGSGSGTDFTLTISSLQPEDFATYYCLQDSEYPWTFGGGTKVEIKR	11.47
